Target: T1, biotinylated recombinant human IL-12Rβ2 (human, UniProt Q99665 24-622, random biotinylated)
T1 construct: Recombinant protein produced in-house; also called hIL-12RB2; human IL-12RB2
T1 sequence: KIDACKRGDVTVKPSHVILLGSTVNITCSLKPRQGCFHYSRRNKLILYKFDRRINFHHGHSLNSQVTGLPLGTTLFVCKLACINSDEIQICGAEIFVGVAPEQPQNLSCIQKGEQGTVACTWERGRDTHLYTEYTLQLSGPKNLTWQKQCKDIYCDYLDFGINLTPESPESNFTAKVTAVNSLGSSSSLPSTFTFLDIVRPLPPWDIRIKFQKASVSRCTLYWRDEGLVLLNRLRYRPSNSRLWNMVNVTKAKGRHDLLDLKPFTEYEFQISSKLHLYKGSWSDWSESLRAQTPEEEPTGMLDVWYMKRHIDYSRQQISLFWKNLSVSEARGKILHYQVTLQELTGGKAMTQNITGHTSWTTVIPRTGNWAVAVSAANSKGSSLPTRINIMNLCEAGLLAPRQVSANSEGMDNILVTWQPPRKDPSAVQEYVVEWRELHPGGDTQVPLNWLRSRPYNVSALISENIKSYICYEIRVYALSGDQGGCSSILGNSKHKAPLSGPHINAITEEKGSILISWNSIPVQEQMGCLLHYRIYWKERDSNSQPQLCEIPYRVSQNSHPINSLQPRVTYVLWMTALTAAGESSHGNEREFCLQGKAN
Assay: BLI, P.E., off-rate ranking
measurementLabel: koff (s⁻¹)
Unit s⁻¹ implied. Number only.

Some binders with known koff results, for comparison:
binder | reported
anti-IL-12Rβ2 VHH clone 3CRHS99 (clone ID 20427) (VHH, not shown: small tags and cut ends, periplasmic extract) VHH: QVQLQESGGGLVQPGGSLRLSCKASGFTFSTYAMSWVRQAPGKGLEWVSAINSGGLSTDYADSVEGRFTISRDDAKNMLFLQMNSLKAEDTARYYCAKYEDCSDYMCHRDRAGYWGQGTQVTVSS | 0.00405
anti-IL-12Rβ2 VHH clone 3CAHS150 (clone ID 20403) (VHH, not shown: small tags and cut ends, periplasmic extract) VHH: QVQLQESGGGSVQAGGSLRLSCAASGRTINAYVMGWFRQAPGKEREFVAAISGSGGSTYYADSVKGRFTISRDNAKNTVNLQMDNLRSEDTDVYYCAATYESVYLQNPGQYDYWGQGTQVTVSS | 0.00369
anti-IL-12Rβ2 VHH clone 3CAHS53 (clone ID 20397) (VHH, not shown: small tags and cut ends, periplasmic extract) VHH: QVQLQESGGGLVEPGGSLRLSCAASGRTINAYIMGWFRQAPGKEREFVAAVSGSGGSTYYADSVKGRFTISRDSAKNTVNLQMDNLRSEDTDVYYCAATYESVYLQNPGQYDYWGQGTQVTVSS | 0.00479

Let us examine a further case.
Consider the binder anti-IL-12Rβ2 VHH clone 3CAH60 (clone ID 20361) (VHH, not shown: small tags and cut ends, periplasmic extract) VHH: QVQLQESGGGLVQPGGSLILSCVASGFAMDYLTMGWSREAPRNEREDISCIDTSGRSTDYLDSVKGRFTISRDNAKNTLYLHMNDLKPEDTAEYYCLASTSYCGAGYEYRGQGTQVTVSS . State its measured koff.
0.00517
